Cited source: patent US11325889B2

molecular target: AR protein in VCaP cells (Homo sapiens); construct: endogenous in cells; host or cells: VCaP cells; assay: VCAP AR Degradation Assay (AR ELISA, 24 h); type: cell-based; conditions: concentration of compound when AR level = 50% of DMSO control, read-out: DC50
Sequence (P10275 whole entry): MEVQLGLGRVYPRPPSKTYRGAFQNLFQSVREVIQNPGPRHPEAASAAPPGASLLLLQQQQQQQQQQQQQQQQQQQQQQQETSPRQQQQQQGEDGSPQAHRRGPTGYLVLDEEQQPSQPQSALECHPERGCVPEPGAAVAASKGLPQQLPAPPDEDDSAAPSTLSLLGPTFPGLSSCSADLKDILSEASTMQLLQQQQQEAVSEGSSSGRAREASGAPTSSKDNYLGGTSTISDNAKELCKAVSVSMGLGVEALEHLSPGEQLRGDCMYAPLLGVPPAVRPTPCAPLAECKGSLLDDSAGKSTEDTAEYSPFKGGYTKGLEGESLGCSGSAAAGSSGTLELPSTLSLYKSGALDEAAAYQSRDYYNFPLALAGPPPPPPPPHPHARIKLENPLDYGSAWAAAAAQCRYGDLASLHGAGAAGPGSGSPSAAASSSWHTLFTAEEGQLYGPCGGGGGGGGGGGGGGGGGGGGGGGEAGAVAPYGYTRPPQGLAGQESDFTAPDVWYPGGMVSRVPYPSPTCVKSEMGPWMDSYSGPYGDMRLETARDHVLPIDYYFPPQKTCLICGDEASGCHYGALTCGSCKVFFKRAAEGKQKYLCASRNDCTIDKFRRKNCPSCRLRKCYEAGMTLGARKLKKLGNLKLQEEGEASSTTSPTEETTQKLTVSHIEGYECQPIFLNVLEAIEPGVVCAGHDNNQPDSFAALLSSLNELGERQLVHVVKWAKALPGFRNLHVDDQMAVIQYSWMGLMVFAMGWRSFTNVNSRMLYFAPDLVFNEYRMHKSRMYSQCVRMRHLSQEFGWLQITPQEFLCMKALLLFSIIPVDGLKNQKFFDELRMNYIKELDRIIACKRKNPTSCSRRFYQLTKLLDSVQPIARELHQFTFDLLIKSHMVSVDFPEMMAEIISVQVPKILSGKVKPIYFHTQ
endpoint.label: DC50

| compound | endpoint.label | recorded.measurement |
| --- | --- | --- |
| CC(C)c1cc(N2C(=S)N(c3ccc(C#N)c(C(F)(F)F)c3)C(=O)C2(C)C)cnc1OCC[C@H]1C[C@@H](C)N(CC(=O)Nc2cccc(NC3CCC(=O)NC3=O)c2)[C@@H](C)C1 (some centres unmarked) | DC50 | 500 to 1000 nM |
| CCc1cc(N2C(=S)N(c3ccc(C#N)c(C(F)(F)F)c3)C(=O)C2(C)C)ccc1OCC[C@@H]1CCN(CC(=O)Nc2cccc(NC3CCC(=O)NC3=O)c2)[C@H](C)C1 (some centres unmarked) | DC50 | < 100 nM |
| CC1(C)C(=O)N(c2ccc(C#N)c(C(F)(F)F)c2)C(=S)N1c1ccc(OCCC2CCN(CC(=O)Nc3cc(Cl)cc(NC4CCC(=O)NC4=O)c3)CC2)c(Cl)c1 (centres unmarked) | DC50 | 100 to 500 nM |

Prompt: # query: DC50 of entry CCc1cc(N2C(=S)N(c3cnc(C#N)c(C(F)(F)F)c3)C(=O)C23CCC3)ccc1OCCC1CCN([C@H](C)C(=O)Nc2cc(Cl)cc(NC3CCC(=O)NC3=O)c2)CC1 (some centres unmarked)
Completion: 100 to 500 nM

Prompt: Request: CCc1cc(N2C(=S)N(c3ccc(C#N)c(C(F)(F)F)c3)C(=O)C2(C)C)ccc1OC1CCN(CC(=O)Nc2cccc(NC3CCC(=O)NC3=O)c2)CC1 (centres unmarked)
Completion: 100 to 500 nM

Prompt: One more compound: CC(F)(F)c1cc(N2C(=S)N(c3cnc(C#N)c(C(F)(F)F)c3)C(=O)C2(C)C)ccc1OCCC1CCN(CC(=O)Nc2cc(F)cc(NC3CCC(=O)NC3=O)c2)CC1 (centres unmarked)
Completion: < 100 nM

Prompt: Now consider CCc1cc(N2C(=S)N(c3ccc(C#N)c(C(F)(F)F)c3)C(=O)C23CCC3)ccc1OCCC1CCN([C@H](C)C(=O)Nc2cccc(NC3CCC(=O)NC3=O)c2)CC1 (some centres unmarked) .
Completion: 100 to 500 nM

Prompt: What do we get for CCc1cc(N2C(=S)N(c3ccc(C#N)c(C(F)(F)F)c3)C(=O)C23CCC3)ccc1OCCC1CCN(CC(=O)Nc2cccc(NC3CCC(=O)NC3=O)c2)CC1 (centres unmarked) ?
Completion: < 100 nM
